Assay: logP by HPLC on reversed-phase column (C18), EEC Directive 79/831 Annex V.A8
Type: physicochemical
Settings: reversed-phase C18 HPLC column, HPLC-MS method a); read-out: log P (HPLC-MS)
experimental-endpoint: chromatographic logP

## Task Answer with the recorded chromatographic logP for the molecule listed here: Cc1cc(C(F)(C(F)(F)F)C(F)(F)F)cc(C)c1-n1cc(-c2cnc(C)c(C(=O)NC3CC3)c2)nn1 [Example 1]
## Result 3.33

---

Test: logP by HPLC on reversed-phase column (C18), EEC Directive 79/831 Annex V.A8
Assay type: physicochemical
Settings: reversed-phase C18 HPLC column, HPLC, C18, acetonitrile (0.1% formic acid)/water (0.09% formic acid) gradient; read-out: logP
experimental-endpoint: chromatographic logP

## Task Assign chromatographic logP to the following record: Cc1cc(C(F)(C(F)(F)F)C(F)(F)F)cc(C)c1-n1cc(-c2cnc(C)c(C(=O)NC3CC3)c2)nn1 [Example 1]
## Result 3.3

---

Test: logP by HPLC on reversed-phase column (C18), EEC Directive 79/831 Annex V.A8
Type: physicochemical
Details: HPLC, C18, acetonitrile (0.1% formic acid)/water (0.09% formic acid) gradient
experimental-endpoint: logP
Give bare numbers.

Kindly give each listed record's logP.
1. CN(C(=O)c1cc(-c2cn(-c3c(Cl)cc(-c4ccccc4)cc3Cl)nn2)cnc1Cl)C1CC1 [Example 31]
2. COc1ncc(-c2cn(-c3c(Cl)cc(C(F)(C(F)(F)F)C(F)(F)F)cc3Cl)nn2)cc1C(=O)NC1(C#N)CC1 [Example 4]
3. Cc1cc(C(F)(C(F)(F)F)C(F)(F)F)cc(C)c1-n1cc(-c2cnc(C)c(C(=O)NC3(C#N)CC3)c2)nn1 [Example 12]
4. COc1ncc(-c2cn(-c3c(C)cc(C(F)(C(F)(F)F)C(F)(F)F)cc3C)nn2)cc1C(=O)NC1CC1 [Example 11]

## Result
1: 4.0; 2: 4.3; 3: 3.4; 4: 4.3

---

Could you please report measured efficacy (laying of fertile eggs) for the items listed next?
Tested on: Boophilus microplus
Test: Boophilus microplus injection test
Format: in vivo
Settings: application rate 20 μg/animal, assessed after 7 days
One number for each entry, in %.

## Task Dear colleague, please send me the reported efficacy (laying of fertile eggs) for CCc1cc(C(F)(C(F)(F)F)C(F)(F)F)cc(C)c1-n1cc(-c2cnc(Cl)c(C(=O)NC(C)C)c2)nn1 when you can.
## Result 100

## Task Input COc1ncc(-c2cn(-c3c(C)cc(C(F)(C(F)(F)F)C(F)(F)F)cc3C)nn2)cc1C(=O)NC1CC1 , output reported efficacy (laying of fertile eggs).
## Result 100

## Task Give the value of efficacy (laying of fertile eggs) reported for the following: Cc1cc(C(F)(C(F)(F)F)C(F)(F)F)cc(Br)c1-n1cc(-c2cnc(Cl)c(C(=O)NC3CC3)c2)nn1
## Result 100

## Task Give reported efficacy (laying of fertile eggs) value for Cc1cc(C(F)(C(F)(F)F)C(F)(F)F)cc(Br)c1-n1cc(-c2cnc(Cl)c(C(=O)NCC(F)(F)F)c2)nn1
## Result 100

## Task Give a short answer stating reported efficacy (laying of fertile eggs) for CCNC(=O)c1cc(-c2cn(-c3c(C)cc(C(F)(C(F)(F)F)C(F)(F)F)cc3Br)nn2)cnc1Cl .
## Result 100

As a next step, examine the molecule that follows.
## Task Answer with the recorded efficacy (laying of fertile eggs) of CCc1cc(C(F)(C(F)(F)F)C(F)(F)F)cc(C)c1-n1cc(-c2cnc(Cl)c(C(=O)N(C)C3CC3)c2)nn1 only.
## Result 100

---

Assay: logP by HPLC on reversed-phase column (C18), EEC Directive 79/831 Annex V.A8
Type: physicochemical
Settings: HPLC, C18, acetonitrile (0.1% formic acid)/water (0.09% formic acid) gradient
The label is label 1 for logP below 4 and label 0 for logP equal to or exceeding 4.

## Task Hello, I'm reviewing records and need to know if logP of O=C(NC1CC1)c1cc(-c2cn(-c3c(Cl)cc(-c4ccccc4)cc3Cl)nn2)cnc1Cl is below 4. Could you check?
## Result label 1

## Task Is it true that logP reported for Cc1cc(C(F)(C(F)(F)F)C(F)(F)F)cc(C)c1-n1cc(-c2cnc(Cl)c(C(=O)NC3(C#N)CC3)c2)nn1 is less than 4?
## Result label 1

## Task Quick check: logP of COc1ncc(-c2cn(-c3c(C)cc(C(F)(C(F)(F)F)C(F)(F)F)cc3C)nn2)cc1C(=O)NC1(C#N)CC1 under 4?
## Result label 0

## Task # TODO verify logP < 4 strictly for this compound: Cc1ncc(-c2cn(-c3c(Cl)cc(C(F)(C(F)(F)F)C(F)(F)F)cc3Cl)nn2)cc1C(=O)NC1CC1
## Result label 1

## Task Lab note: confirm whether the reported logP for this compound is below 4, equality not counting. compound: CCc1cc(C(F)(C(F)(F)F)C(F)(F)F)cc(C)c1-n1cc(-c2cnc(Cl)c(C(=O)N(C)C3CC3)c2)nn1
## Result label 0

---

Task for the reader: assign each of the following compounds its reported logP.
Assay: logP by HPLC on reversed-phase column (C18), EEC Directive 79/831 Annex V.A8
Type: physicochemical
Settings: HPLC, C18, acetonitrile (0.1% formic acid)/water (0.09% formic acid) gradient

For each entry beneath this line, provide reported logP.
1. COc1ncc(-c2cn(-c3c(Cl)cc(C(F)(C(F)(F)F)C(F)(F)F)cc3Cl)nn2)cc1C(=O)NC1CC1
2. N#CC1(NC(=O)c2cc(-c3cn(-c4c(Cl)cc(C(F)(C(F)(F)F)C(F)(F)F)cc4Cl)nn3)cnc2Cl)CC1
3. CCNC(=O)c1cc(-c2cn(-c3c(C)cc(C(F)(C(F)(F)F)C(F)(F)F)cc3CC)nn2)cnc1Cl

## Result
[4.4, 3.8, 4.1]
